- TEST SUMMARY: Liver microsomal stability, rat
- Type: in vitro ADME
- TEST SETTINGS: rat liver microsomes, 1 μM (verapamil 0.5 μM)
- Method: The liver microsomes of humans, rats, and mice were purchased from Merck (human, #M0567; rat, #M9066; mouse, #M9441). The metabolic stability of 6-shogaol and STCs (1 μM effective concentration; 5 μL) was mixed with liver microsomes (0.5 mg mL^−1; 445 μL) in a microcentrifuge tube. Verapamil (0.5 μM) was used as the positive control. […] The intrinsic clearance (Clint) and half-life (t1/2) were calculated using the following equations.
Please enter t where Clint is greater than or equal to 10 mL/min/g liver, and f where it is lower.

Field: example entries. Status: answers known.
| MOLECULE | CAT |
| --- | --- |
| COc1cc(CCC(=O)/C=C/c2ccsc2)ccc1O | t |
| CCCCC/C=C/C(=O)CCc1ccc(O)c(OC)c1 [6-shogaol, reference compound] | t |

-- ask Hello, I need to know if "COc1cc(CCC(=O)/C=C/c2sccc2C)ccc1O" has measured Clint not below 10 mL/min/g liver. Thanks!
-- reply f

src = paper PMC9951879
